- Test system: MS2 coat protein
- measurement.protocol: apparent KD of MS2 coat protein; higher = weaker reporter binding
- condition.context: Eterna round: R107; input ligand: theophylline 20 uM
Reported apparent KD of MS2 coat protein values follow for various sequences
API: value field is a number in nM; no unit string.

Use the examples below as a reference point.
>  <sequence.text>
AUUAAUAGUUGUGAUACCAGACGAACAUGAGGAUCACCCAUGUAACUUAAGAGUGUUGAUGUCCCUUGGCAGCACUGUUUAGUUA [JR_SSTheophyB_Sub015]

>  <measurement>
105

$$$$
>  <sequence.text>
AUAUGAUCAUGUGAUACCAGAAAUGGUAGUCCUCGCUGGAUUACAUGAGGAUCACCCAUGUUCCCUUGGCAGCAUAUGAUCAUAU [#02 Exclusion-TheophyllineB]

>  <measurement>
122

$$$$
>  <sequence.text>
AGUCUUAAUGGAAGGAGCGCAGUCAUAACAUGAGGAUCACCCAUGUCGAGGUGAGGGUCAUUGCAGGUAGGUCGCCAUACUAGAA [Same State - Arginine B (Freestyle 1)]

>  <measurement>
222

$$$$
>  <sequence.text>
UAACAUGAGGAUCACCCAUGUUUAGAUGAACGAGGACCGGUACGGCCGCCACUCGAUAAGUGGAAAGAGCGAGGGAUUGUAUGCU [Same State Trp A GF4]

>  <measurement>
16.2

$$$$
>  <sequence.text>
GAGUAGAGGACGGCCGCCACUGAACAUGAGGAUCACCCAUGUCGUGAUCCGUUACCUAGGGUAGAUAGGACCGGGUCAUGUACUC [Exclusion Tryptophan B GF 18]

>  <measurement>
68.8

$$$$

Please find the next sequence below.
QUERY: Request the reported apparent KD of MS2 coat protein associated with AAUCAUGGAAACAUGACAUGAGGGUUGCUCCGAGGACCGGUACGGCCGCCACUCGCGAGGAGGCGGACAUGAGGAUCACCCAUGU [#05 Tryptophan A Same State]
RESULT: 280

====

- System: K4 kissing-loop RNA reporter;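 note: bound reporter read as fluorescence of individual clusters on recovered sequencing chips by microscopy, with normalized cluster intensities fitted with a binding model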
- measurement.protocol: apparent KD of K4 kissing-loop reporter; higher = weaker reporter binding
- condition.context: Eterna round: R107; input ligand: none
Reported apparent KD of K4 kissing-loop reporter values follow for various sequences
API: value field is a number in µM; no unit string.

>  <sequence.text>
AACUGUUGGGAAGGAUAUUAUGGUGGCUAAAUCCAGUGAUGUUGGAAAUCGGUACUCGCCCACCUUUAAGAAGGUCCGUGAAAGA [theeternabot_sameState_KL_FMN_B_6]

>  <apparent KD of K4 kissing-loop reporter [µM]>
0.151

$$$$

QUERY: Request the reported apparent KD of K4 kissing-loop reporter associated with AGCAGUCACUCGAAAAACCAUCGAAGAUGGCGAGGACCGGUACGGCCGCCACUCGGAGUGAUGUUCCGAAGACUGCAAAAUAAAA [#SwitchBubble 15]
RESULT: 0.368

QUERY: Request the reported apparent KD of K4 kissing-loop reporter associated with UUCAGGUGUUCGGCCGCCACUCCAGUGAUGUUGGAGUGGCUUCACAAGGGCCAGGACAAUGUAAGGAGGACCGGGAAUAUCGCAG [Quonerar]
RESULT: 0.123

====

Reported apparent KD of MS2 coat protein values follow for various sequences
- Test system: MS2 coat protein
- measurement.protocol: apparent KD of MS2 coat protein; designed switch direction (-1 OFF switch, 1 ON switch): -1; higher = weaker reporter binding
- condition.context: input ligand: none
API: value field is a number in nM; no unit string.

Use the examples below as a reference point.
>  <sequence.text>
AGCUUUGCUGCUCGUCCCAACAUGAGGAUCACCCAUGUUCUUAUGAAACCAUCUAGCCUAGAUGGGUCUUGCCAAAG [Eternabot (Original) Solution 47] (Eterna round: R97, puzzle: Sensor, turn-off variant 1)

>  <measurement>
29.1

$$$$
>  <sequence.text>
GGCCGUAAUAAGGAUAUCACUAGCCUCGGCUAGUGAGAAGGUAUUACAUGAGGAUCACCCAUGUGAUCAGGCCA [E6/3-B2] (Eterna round: R97, puzzle: Exclusion 6)

>  <measurement>
160

$$$$

QUERY: Request the reported apparent KD of MS2 coat protein associated with GCUAGAGCAGGAUAUUUAGAUCCUCACAUGAGGAUCACCCAUGUGGCCGAAAGGCUAAGGAGAGAAGGGCUCUAGC [Omei Ex5 E23] (Eterna round: R97, puzzle: Exclusion 5)
RESULT: 933

QUERY: Request the reported apparent KD of MS2 coat protein associated with CCGACUCAAGGAUAUUGUACUGCUGACAUGAGGAUCACCCAUGUGUCCUGACGCGGACGACGAGAAGGUGACGACA [Eternabot (Original) Solution 44] (Eterna round: R97, puzzle: Exclusion 5)
RESULT: 292

QUERY: Request the reported apparent KD of MS2 coat protein associated with UUUUUUGGGCAAGGAUAUCCUGUGCGGUUCCGGCUCGUGUCUGUCACAUGAGGAUCACCCAUGUGGGAGAAGGUGCCUGCGGUU [Design 84] (Eterna round: R96, puzzle: Exclusion NG 2)
RESULT: 15.4

====

- System: MS2 coat protein
- measurement.protocol: apparent KD of MS2 coat protein; higher = weaker reporter binding
- condition.context: Eterna round: R107; input ligand: tryptophan 2.4 mM
endpoint: apparent KD of MS2 coat protein (nM)
API: value field is a number in nM; no unit string.

Use the examples below as a reference point.
>  <sequence.text>
UCGGGCAGAGCGGCCGCCACUGUUUGGCGUGCGGAUGAAGGAACAUGAGGAUCACCCAUGUAGAUUAGGACCGGGCUUGCGGAGA [ddrmullin]

>  <system>
MS2 coat protein

>  <endpoint>
apparent KD of MS2 coat protein

>  <measurement>
15.9

$$$$
>  <sequence.text>
UAUAGUGUGAUGGAUACCAGCAGAGAAAACGUUUAUCCUAACAUGAGGAUCACCCAUGUAUGCCCUUGGCAGCUGUUGUGUUAUA [8.O]

>  <system>
MS2 coat protein

>  <endpoint>
apparent KD of MS2 coat protein

>  <measurement>
30.3

$$$$
>  <sequence.text>
AGAGUCAGACAAAAGUCUGGCUCAGCCGAAGGAGCGUCCGAAAGGACAGGUAGGUCGCGGUUACCUGAGGAUCACCCAGGUUCCU [ArgAS 24 #OpenEnded #AlternativeMS2]

>  <system>
MS2 coat protein

>  <endpoint>
apparent KD of MS2 coat protein

>  <measurement>
91.5

$$$$
>  <sequence.text>
AUAUGAAAGAGUGAUACCAGACUACAUGAGGAUCACCCAUGUGACAUUUAAAUAUCAUUUGUCCCUUGGCAGCACAUUAAGUACA [JR_Nu_ExcTheophyB_Sub021]

>  <system>
MS2 coat protein

>  <endpoint>
apparent KD of MS2 coat protein

>  <measurement>
43

$$$$
>  <sequence.text>
UAACAUGAGGAUCACCCAUGUUUGGAGAAACGAGGACCGGUACGGCCGCCACUCGAGGAGUGGAUGAGAAGUGGGAUAGAGUGAU [Same State Trp A GF6]

>  <system>
MS2 coat protein

>  <endpoint>
apparent KD of MS2 coat protein

>  <measurement>
15.1

$$$$

QUERY: Request the reported apparent KD of MS2 coat protein associated with "UGUAUGGACUGAAGGAGCGGGUAAUAAACUUGAGGAUCACCCAGGUAAUAGGCGAAAGCCACCCAGGUAGGUCGCAGUCCAUACU"
RESULT: 25.6

QUERY: Request the reported apparent KD of MS2 coat protein associated with GCUGCCAUACGAAGGAGCGCUGGUGUAAUGAGGCGAACAUGAGGAUCACCCAUGUGGCAUAAGCAGGUAGGUCGCGUAUGGCAGC [EAB #16]
RESULT: 15.9

QUERY: Request the reported apparent KD of MS2 coat protein associated with GCAUCCUAGUCGGCCGCCACUGCGGAUCCGGUUCUAGAUCCUUAACAUGAGGAUCACCCAUGUAGCAGGACCGGGACUAGGAUGC [(Trp1)-(TM)''-(TM)'-(Ms2)-(Trp2)_Design2]
RESULT: 295

QUERY: Request the reported apparent KD of MS2 coat protein associated with AGACAUGAGGAUCACCCAUGUAGUACGGAUACCAGAUCCAGAUGCGUCCCUUGGCAGCUGUAGUACAGCGUUACGUCGCUCAUAG [Exclusion - Theophylline A (Freestyle 26)]
RESULT: 28.4

QUERY: Request the reported apparent KD of MS2 coat protein associated with CGAUGAUCGAGGGAUACCAGAAAUGGUAUUCCUUUAUUUCUUACAUGAGGAUCACCCAUGUUCCCUUGGCAGCUUUUGAUCAUCG [ETHB #7]
RESULT: 74.6

QUERY: Request the reported apparent KD of MS2 coat protein associated with CAACAAGUAACUGAUACCAGUGUACUGACAUGAGGAUCACCCAUGUUGGGUUUUGUUGUACACCCUUGGCAGCAGAAUCUUGUUG [AstrosExyTheB#21]
RESULT: 50

QUERY: Request the reported apparent KD of MS2 coat protein associated with UUCGUUUGCGGAAGGAGCGACGGACAUCGGUGAACGACGGACAUGAGGAUCACCCAUGUACGUCAGGUAGGUCGCCGCUAAGAGU [Enbiceri]
RESULT: 13.8
